Task for the reader: assign each of the following binders its reported Lysis IC50.
SUBJECT OF TEST: human complement protein C3 (human, UniProt P01024 23-1663)
Sequence (P01024 23-1663 limits assumed): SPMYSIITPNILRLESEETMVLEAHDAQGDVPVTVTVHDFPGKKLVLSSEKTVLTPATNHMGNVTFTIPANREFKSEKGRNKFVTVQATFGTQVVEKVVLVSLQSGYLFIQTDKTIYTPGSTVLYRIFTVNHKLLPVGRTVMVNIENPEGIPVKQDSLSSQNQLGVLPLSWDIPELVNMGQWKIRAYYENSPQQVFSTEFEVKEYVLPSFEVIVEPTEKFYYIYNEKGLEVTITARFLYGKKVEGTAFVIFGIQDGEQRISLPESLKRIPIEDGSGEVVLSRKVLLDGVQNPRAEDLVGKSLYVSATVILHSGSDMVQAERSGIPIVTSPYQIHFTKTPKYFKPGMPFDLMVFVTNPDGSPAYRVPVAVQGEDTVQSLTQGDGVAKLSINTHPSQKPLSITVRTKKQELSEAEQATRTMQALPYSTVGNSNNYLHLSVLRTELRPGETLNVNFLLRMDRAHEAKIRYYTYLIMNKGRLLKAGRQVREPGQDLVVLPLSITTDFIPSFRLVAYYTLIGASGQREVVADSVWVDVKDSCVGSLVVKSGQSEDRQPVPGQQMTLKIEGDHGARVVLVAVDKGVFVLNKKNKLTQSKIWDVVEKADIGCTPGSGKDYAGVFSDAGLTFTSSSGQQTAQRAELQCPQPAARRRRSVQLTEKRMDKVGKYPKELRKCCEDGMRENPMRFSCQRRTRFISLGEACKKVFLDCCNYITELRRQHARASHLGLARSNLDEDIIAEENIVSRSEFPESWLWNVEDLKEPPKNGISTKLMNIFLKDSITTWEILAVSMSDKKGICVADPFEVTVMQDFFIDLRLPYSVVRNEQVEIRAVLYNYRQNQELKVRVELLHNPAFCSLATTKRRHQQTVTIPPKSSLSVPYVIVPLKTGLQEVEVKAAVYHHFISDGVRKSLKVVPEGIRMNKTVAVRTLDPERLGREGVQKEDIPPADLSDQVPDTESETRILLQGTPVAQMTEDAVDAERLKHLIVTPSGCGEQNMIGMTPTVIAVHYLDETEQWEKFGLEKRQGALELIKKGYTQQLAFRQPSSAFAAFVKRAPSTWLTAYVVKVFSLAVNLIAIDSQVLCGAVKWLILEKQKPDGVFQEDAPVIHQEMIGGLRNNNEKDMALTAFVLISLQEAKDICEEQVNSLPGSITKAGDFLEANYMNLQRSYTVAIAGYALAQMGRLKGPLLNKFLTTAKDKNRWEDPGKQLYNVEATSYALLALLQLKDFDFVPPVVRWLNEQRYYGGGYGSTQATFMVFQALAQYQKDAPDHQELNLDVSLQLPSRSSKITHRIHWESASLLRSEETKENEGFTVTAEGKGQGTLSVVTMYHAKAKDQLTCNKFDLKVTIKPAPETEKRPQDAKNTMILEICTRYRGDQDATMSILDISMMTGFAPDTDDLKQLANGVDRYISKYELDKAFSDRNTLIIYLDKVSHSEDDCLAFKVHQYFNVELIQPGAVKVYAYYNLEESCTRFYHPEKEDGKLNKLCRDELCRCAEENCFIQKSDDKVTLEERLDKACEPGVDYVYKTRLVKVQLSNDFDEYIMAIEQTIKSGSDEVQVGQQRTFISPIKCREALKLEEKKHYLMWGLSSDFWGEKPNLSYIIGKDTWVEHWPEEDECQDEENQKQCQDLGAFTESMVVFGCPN
ASSAY REMARKS: cell-based or functional assay
Bridge positions count the residues as written; N and C are the ends. Square brackets hold non-standard residues; d marks the D form. Nal = 1-naphthylalanine or 2-naphthylalanine
Give bare numbers, in µM.

Solved cases (3 shown):
>  <BINDER>
Ac-ERICV[Nal]QDWG[Nal]HRCT-NH2 (disulfide 4-14; not fully specified; printed as Ac-ERICV{Nal}QDWG{Nal}HRCT-NH2) [Peptide 4.5, Ac-ER-ICV{Nal}QDWG{Nal}HRCT-NH2]

>  <Lysis IC50 (µM)>
3

$$$$
>  <BINDER>
Ac-RSICVWQDWGAHRCT-NH2 (disulfide 4-14) [Peptide 3.4, Ac-RS-ICVWQDWGAHRCT-NH2]

>  <Lysis IC50 (µM)>
0.3

$$$$
>  <BINDER>
Ac-ICVWQDWG[Nal]HRCT-NH2 (disulfide 2-12; not fully specified; printed as Ac-ICVWQDWG{Nal}HRCT-NH2) [Peptide 2.2, Ac-ICVWQDWG{Nal}HRCT-NH2]

>  <Lysis IC50 (µM)>
1.4

$$$$

Now take the following binder into account.
Return the recorded Lysis IC50 value; entry: Ac-NNLCV[Nal]QDWG[Nal]HRCT-NH2 (disulfide 4-14; not fully specified; printed as Ac-NNLCV{Nal}QDWG{Nal}HRCT-NH2) [Peptide 4.6, Ac-NN-LCV{Nal}QDWG{Nal}HRCT-NH2]
2.2
